target: ARHGEF12, Q9NZN5-2; experiment: holdup assay; design: key: below the threshold = too weak to quantify, mostly under pKd 3.1 to 4; conditions: plain residues with an end cap or a label only (N-terminal biotin on a linker: ado-ado)
Sequence (Q9NZN5 other isoform, or with tags, fused parts or gaps): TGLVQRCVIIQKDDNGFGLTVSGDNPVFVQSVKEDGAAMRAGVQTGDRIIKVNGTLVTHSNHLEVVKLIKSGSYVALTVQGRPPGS

binder | pKd
SPDRDRESIV [SCN5A, Q14524] | below the threshold
DPAESMESLV [PTPRG, P23470] | below the threshold
PYSESDDDWC [CACNA1A, O00555] | below the threshold
